# experimental_details: qHTS RealTime-Glo MT Cell Viability Assay in HEK293 cells - 16 hour (AID 1224872); further: top concentration of the series differs between compounds; nearly all actives have a fitted effect of over 50% in size
# study_conditions: RealTime-Glo luminescence; series mostly up to 76.8 µM
# Description: National Center for Advancing Translational Sciences [NCATS] NIH Chemical Genomics Center [NCGC] U.S. Environmental Protection Agency [EPA] National Institutes of Environmental Health Sciences [NIEHS] National Toxicology Program [NTP] U.S. Food and Drug Administration [FDA] Measure of cell viability is critical in the cell-base assay. Analysis of cell viability is necessary for the characterization of cell responses to cytotoxic drugs and environmental stress. […]
Inconclusive results are not listed. Activity calls are given as the source filed them. The call rests on the fitted dose curve; in most records, active means well fitted cell-killing curve with a large enough effect in the repeat runs; inconclusive means weak or mixed curves, or effect the other way; inactive means flat fitted curve, though single readings scatter.
measurement_type: Potency

Worked cases, answers included:
| compound | Potency |
| --- | --- |
| NC(=Nc1ccccc1)Nc1ccccc1 | inactive |
| CC1=C(C=O)C(C)(C)CC=C1 | inactive |
| O=C(O)c1cccc(C(=O)O)c1 | inactive |
| Cc1cccc2n[nH]nc12 | inactive |
| CCCCCCCCCCCC[N+](C)(C)C | inactive |

Potency measured on CCC(=O)/C=C/C1C(C)=CCCC1(C)C (stereo not given) = inactive

Potency measured on C1COC(NC(C2CC2)C2CC2)=N1 = inactive

---

# experimental_details: qHTS assay to identify aromatase inhibitors - cell viability counter screen (AID 743084);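 further: cells stimulated with testosterone during compound exposure; nearly all actives have a fitted effect of over 55% in size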
# study_conditions: MCF-7 aro ERE viability, CellTiter-Fluor, 24 h; series mostly up to 70.3 µM
Results filed as inconclusive are left out. Calls of active or inactive are those of the source. Calls follow the shape of the dose curve; as a rule, active = well fitted cell-killing curve with a large enough effect in the repeat runs; inconclusive = weak or mixed curves, or effect the other way; inactive = no such curve, though single readings can be large or run the other way.
Would you mind answering with one of these outcomes? 1 for active, 0 for inactive

| molecule | assigned_class |
| --- | --- |
| CCCCOCCOC(=O)c1ccccc1C(=O)OCCOCCCC | 0 |
| C[N+]1([O-])CCOCC1 | 0 |
| Nc1cc(Cl)c(-c2cc(Cl)c(N)cc2Cl)cc1Cl | 1 |
| CC(C)(O)CCC(C)(C)O | 0 |
| CC(=O)OCC1=C(C(=O)O)N2C(=O)[C@@H](NC(=O)Cc3cccs3)[C@H]2SC1 | 0 |
| Cc1scc2c1N(C(=O)CN1CCN(C)CC1)c1ccccc1NC2=O | 0 |
| C=CS(=O)(=O)O | 0 |
| CO[Si](OC)(OC)c1ccccc1 | 0 |

Moving on to another molecule below.
// query For Cc1ccnc2c1NC(=O)c1cccnc1N2C1CC1 , which call appears in the assay record?
// result 0

---

# experimental_details: A CellTox Green Cytotoxicity Assay to monitor cytotoxicity in HEK293 cells - 8 hour (AID 1224884); further: nearly all actives have a fitted effect of over 35% in size
# study_conditions: CellTox Green fluorescence; series mostly up to 76.8 µM
Inconclusive results are not listed. Activity calls are given as the source filed them. Calls follow the shape of the dose curve; as a rule, active = well fitted activation curve with a large enough effect in the repeat runs; inconclusive = weak or mixed curves; inactive = flat fitted curve, though single readings scatter.
Would you mind answering with one of these outcomes? active, inactive

Before answering, review these 3 worked examples.
| compound | assigned_class |
| --- | --- |
| CC(C)(O)CCC(C)(C)O | inactive |
| NCCCCCC(=O)O | inactive |
| CC(=O)N[C@@H](CS)C(=O)O | inactive |

// query For CC(COc1ccccc1)N(CCCl)Cc1ccccc1 (stereo not given) , which call appears in the assay record?
// result inactive

// query For Cc1cc(OCCOCC[N+](C)(C)Cc2ccccc2)ccc1C(C)(C)CC(C)(C)C , which call appears in the assay record?
// result active

// query For Oc1ccc(Cl)cc1Cc1cc(Cl)ccc1O , which call appears in the assay record?
// result inactive

---

# experimental_details: qHTS assay to identify small molecule agonists of the farnesoid-X-receptor (FXR) signaling pathway - cell viability counter screen (AID 743218); further: nearly all actives have a fitted effect of over 45% in size
# study_conditions: FXR-bla HEK293T viability, CellTiter-Glo luminescence, 16 h; series mostly up to 62.6 µM
Results filed as inconclusive are left out. Active and inactive are the calls of the source. Calls follow the shape of the dose curve; as a rule, active = well fitted cell-killing curve with a large enough effect in the repeat runs; inconclusive = weak or mixed curves, or effect the other way; inactive = no such curve, though single readings can be large or run the other way.
Would you mind answering with one of these outcomes? active, inactive

| smiles | assigned_class |
| --- | --- |
| c1ccc2cc3c(ccc4ccccc43)cc2c1 | inactive |
| CN(C)c1ccc2nc3ccc(=[N+](C)C)cc-3sc2c1 | inactive |
| NC12CC3CC(CC(C3)C1)C2 | inactive |
| Oc1c(Cl)cc(Cl)cc1Sc1cc(Cl)cc(Cl)c1O | active |
| O=C(O)c1cc(Cl)cc(Cl)c1 | inactive |

// query For O=C1Nc2ccccc2C1(c1ccc(O)cc1)c1ccc(O)cc1 , which call appears in the assay record?
// result inactive

// query For Cc1ccnc2c1NC(=O)c1cccnc1N2C1CC1 , which call appears in the assay record?
// result inactive

---

# experimental_details: qHTS assay to identify small molecule antagonists of the thyroid receptor (TR) signaling pathway (AID 743065); further: nearly all actives have a fitted effect of over 55% in size
# study_conditions: GH3.TRE-Luc, T3-stimulated luciferase inhibition, 23.5 h; series mostly up to 70.3 µM
Records with an inconclusive call do not appear. Activity calls are given as the source filed them. Calls come from the whole dose curve; as a rule, active = well fitted inhibition curve with a large enough effect in the repeat runs; inconclusive = weak or mixed curves; inactive = no such curve, though single readings can be large or run the other way.
Would you mind answering with one of these outcomes? active, inactive

| compound | assigned_class |
| --- | --- |
| CCCCCCC(O)CCCCCCCCCCC(=O)O (stereo not drawn) | inactive |

// query For Cc1ccc(S(=O)(=O)Oc2ccc(N=Nc3ccc(-c4ccc(N=Nc5c(O)ccc6cc(S(=O)(=O)O)cc(S(=O)(=O)O)c56)c(C)c4)cc3C)cc2)cc1 , which call appears in the assay record?
// result active

// query For C/C=C/c1ccc(OCC)c(O)c1 , which call appears in the assay record?
// result inactive

// query For CCOC(=O)C(C)C(C)=O (stereo not drawn) , which call appears in the assay record?
// result inactive

---

# experimental_details: qHTS RealTime-Glo MT Cell Viability Assay in HEK293 cells - 8 hour (AID 1224887); further: top concentration of the series differs between compounds; nearly all actives have a fitted effect of over 50% in size
# study_conditions: RealTime-Glo luminescence; series mostly up to 76.8 µM
Results filed as inconclusive are left out. The source made the active and inactive calls. The call rests on the fitted dose curve; in most records, active means well fitted cell-killing curve with a large enough effect in the repeat runs; inconclusive means weak or mixed curves, or effect the other way; inactive means flat fitted curve, though single readings scatter.
measurement_type: activity change, negative = cytotoxicity

Worked cases, answers included:
| molecule | activity change, negative = cytotoxicity |
| --- | --- |
| Cc1cc(C2(c3cc(C)c(O)cc3C)OS(=O)(=O)c3ccccc32)c(C)cc1O | inactive |
| Cc1occc(=O)c1OC(=O)C(C)C | inactive |
| Oc1c(Cl)cc(Cl)cc1Sc1cc(Cl)cc(Cl)c1O | inactive |
| c1ccc2c(c1)-c1cccc3c1c-2cc1ccccc13 | inactive |

activity change, negative = cytotoxicity measured on COc1ccc(Cc2cnc(N)nc2N)cc1OC = inactive

---

# experimental_details: qHTS assay to identify small molecule agonists of the estrogen related receptor signaling pathway with the pleiotropic PPARgamma coactivator (PGC) from Tox21 10K library (AID 1224842); further: nearly all actives have a fitted effect of over 15% in size
# study_conditions: PGC/ERR reporter cell line, luciferase ONE-Glo, 18 h; series mostly up to 92.4 µM
Results filed as inconclusive are left out. Active and inactive are the calls of the source. Calls come from the whole dose curve; as a rule, active = well fitted activation curve with a large enough effect in the repeat runs; inconclusive = weak or mixed curves, or effect the other way; inactive = no such curve, though single readings can be large or run the other way.
Would you mind answering with one of these outcomes? Yes = active, No = inactive

| molecule | assigned_class |
| --- | --- |
| N[C@@H]1CONC1=O | No |
| COc1ccc(CCN2CCC(Nc3nc4ccccc4n3Cc3ccc(F)cc3)CC2)cc1 | No |
| Nc1cc(Cl)c(-c2cc(Cl)c(N)cc2Cl)cc1Cl | No |
| C=CS(=O)(=O)O | No |
| C=CC(=O)OCCCCCCCC | No |

// query For CC(C)(C)c1ccc(O)c(C(C)(C)C)c1 , which call appears in the assay record?
// result No

// query For CC1=C(C=O)C(C)(C)CC=C1 , which call appears in the assay record?
// result No

// query For CC[C@]1(O)C[C@@H]2CN(CCc3c([nH]c4ccccc34)[C@@](C(=O)OC)(c3cc4c(cc3OC)N(C)[C@H]3[C@@](O)(C(=O)OC)[C@H](OC(C)=O)[C@]5(CC)C=CCN6CC[C@]43[C@@H]65)C2)C1 , which call appears in the assay record?
// result No

// query For CCn1cc(C(=O)O)c(=O)c2cc(F)c(N3CCNC(C)C3)c(F)c21 (centres undefined) , which call appears in the assay record?
// result No

// query For COc1cc(C(=S)N2CCOCC2)ccc1O , which call appears in the assay record?
// result No

// query For O=Cc1ccc(Cl)cc1 , which call appears in the assay record?
// result No

// query For CNC1(C)C2CCC(C2)C1(C)C (centres undefined) , which call appears in the assay record?
// result No

// query For C=CC(=O)OCCCCCCOC(=O)C=C , which call appears in the assay record?
// result Yes

// query For CC(C(O)c1ccc(O)cc1)N1CCC(Cc2ccccc2)CC1 (centres undefined) , which call appears in the assay record?
// result No

// query For COC(c1ccccc1)(c1ccccc1)[C@H](Oc1nc(C)cc(C)n1)C(=O)O , which call appears in the assay record?
// result No

---

# experimental_details: qHTS assay to identify small molecule agonists of the peroxisome proliferator-activated receptor delta (PPARd) signaling pathway - cell viability counter screen (AID 743211); further: nearly all actives have a fitted effect of over 55% in size
# study_conditions: PPARd-bla HEK293H viability, CellTiter-Glo luminescence, 17 h; series mostly up to 62.6 µM
Results filed as inconclusive are left out. The source made the active and inactive calls. Calls come from the whole dose curve; as a rule, active = well fitted cell-killing curve with a large enough effect in the repeat runs; inconclusive = weak or mixed curves; inactive = no such curve, though single readings can be large or run the other way.
Would you mind answering with one of these outcomes? 1 (active), -1 (inactive)

| compound | assigned_class |
| --- | --- |
| O=C1NCC2(CCN(CCc3ccccc3)CC2)O1 | -1 |
| Cc1scc2c1N(C(=O)CN1CCN(C)CC1)c1ccccc1NC2=O | -1 |
| CCOc1ccccc1C(N)=O | -1 |
| COc1ccc(CCN(C)CCCC(C#N)(c2ccc(OC)c(OC)c2)C(C)C)cc1OC (configuration not stated) | -1 |
| CCC(=O)/C=C/C1C(C)=CCCC1(C)C (configuration not stated) | -1 |
| CC(C)C(=O)c1c(C(C)C)nn2ccccc12 | -1 |
| CCCN[C@H]1CCc2nc(N)sc2C1 | -1 |
| OCCN1CCNCC1 | -1 |
| Cc1cccc([N+](=O)[O-])c1C(=O)O | -1 |
| COc1cc(C(=S)N2CCOCC2)ccc1O | -1 |

// query For OCC(CO)N[C@H]1C[C@](O)(CO)[C@@H](O)[C@H](O)[C@H]1O , which call appears in the assay record?
// result -1

// query For O=Cc1ccc(Cl)cc1 , which call appears in the assay record?
// result -1

// query For O=C(Cl)c1cccc(C(=O)Cl)c1 , which call appears in the assay record?
// result -1

// query For CC(=O)N[C@@H](CS)C(=O)O , which call appears in the assay record?
// result -1

// query For OCCOCCN1CCN(C(c2ccccc2)c2ccc(Cl)cc2)CC1 (configuration not stated) , which call appears in the assay record?
// result -1

// query For O=C(OCc1ccccc1)c1ccc(O)cc1 , which call appears in the assay record?
// result -1

// query For CC(=O)CC(=O)Nc1ccc2[nH]c(=O)[nH]c2c1 , which call appears in the assay record?
// result -1

// query For CC(C)(C)c1ccccc1 , which call appears in the assay record?
// result -1

Data origin, for the record: PubChem BioAssay (Tox21)
